Taken from a melting point compilation (Tetko et al.; mined from patent text by program, amines drawn as free bases though some values may be those of a salt).

# melting point per entry

Before answering, review these 5 worked examples.
> print(dat)
                                   compound  measurementlabel       measured
1                 Cc1cnc(-c2ccc(CBr)cc2)nc1     melting point  129 to 131 °C
2  CCCCc1nn(-c2ccccc2C(F)(F)F)c(=O)n1Cc1ccc(-c2ccccc2S(=O)(=O)NS(=O)(=O)C(F)(F)F)cc1     melting point  132 to 134 °C
3  Oc1ccc(C(F)(F)C(F)(F)OC(F)(F)C(F)(F)OC(F)(F)C(F)(F)c2ccc(O)cc2)cc1     melting point  118 to 120 °C
4  CCOCC1OC(n2cc(C(F)(F)F)c(=O)[nH]c2=O)CC1O (centres undefined)     melting point  188 to 190 °C
5  CCCCc1nc(Cl)c(CNC(=O)c2cc3c(OCC(O)CN(C(=O)OC(C)(C)C)C(C)C)cccc3[nH]2)n1Cc1ccc(-c2ccccc2C(=O)OC)cc1 (centres undefined)     melting point  158 to 160 °C

melting point recorded for this compound, CC(C)(Oc1ccc(CCC(=O)c2ccc(-c3ccc(Br)cc3)s2)c(Cl)c1Cl)C(=O)O , is 155 to 157 °C

melting point recorded for this compound, COc1ccc(COCc2nnc3n2-c2ccc(Cl)cc2C(c2ccccc2)=NC3)cc1 , is 157 to 159 °C

melting point recorded for this compound, O=C(Nc1ccc(N2CCN(C(=O)C(O)c3ccc(O)cc3Cl)CC2)nc1)Nc1ccccc1F (centres undefined) , is 133 to 135 °C

melting point recorded for this compound, COC(=O)c1ccnc(Nc2ccc(SC)cc2)c1 , is 142 °C

melting point recorded for this compound, Fc1ccc2c(c1)CC[C@H](CNCCNc1ncccn1)O2 , is 103 °C

melting point recorded for this compound, CC(C)(C)N(NC(=S)c1ccc(Cl)cc1)C(=O)c1ccccc1 , is 160 to 162 °C
